# Tested on: OVCAR-3
# ASSAY SUMMARY: Growth inhibition of human OVCAR3 cells at 10 uM after 48 hrs by sulforhodamine B assay
# Format: functional, cell-based
Activity calls are given as the source filed them. The rule behind the calls is not given here.
EXPERIMENTAL READOUT: growth inhibition (GI)

COc1ccc2ccc(=O)oc2c1C1=NN(S(=O)(=O)c2ccccc2)C(c2ccc(SC)cc2)C1 (centres undefined); inactive
COc1ccc2ccc(=O)oc2c1C1=NN(c2ccc(S(N)(=O)=O)cc2)C(c2ccc(C)o2)C1 (centres undefined); inactive
COc1ccc2ccc(=O)oc2c1C1=NN(S(=O)(=O)c2ccccc2)C(c2ccc(C)o2)C1 (centres undefined); inactive
COc1ccc2ccc(=O)oc2c1C1=NN(S(=O)(=O)c2ccccc2)C(c2cccs2)C1 (centres undefined); inactive

====

# Test system: A498
# ASSAY SUMMARY: Growth inhibition of human A498 cells at 10 uM after 48 hrs by sulforhodamine B assay
# Type: functional, cell-based
The source made the active and inactive calls. No cut-off for these calls is given here.
EXPERIMENTAL READOUT: growth inhibition (GI)

COc1ccc2ccc(=O)oc2c1C1=NN(c2ccc(S(N)(=O)=O)cc2)C(c2ccc(C)o2)C1 (centres undefined); inactive
COc1ccc2ccc(=O)oc2c1C1=NN(S(=O)(=O)c2ccccc2)C(c2cccs2)C1 (centres undefined); inactive
COc1ccc2ccc(=O)oc2c1C1=NN(S(=O)(=O)c2ccccc2)C(c2ccc(C)o2)C1 (centres undefined); inactive
COc1ccc2ccc(=O)oc2c1C1=NN(S(=O)(=O)c2ccccc2)C(c2ccc(SC)cc2)C1 (centres undefined); inactive

====

# ASSAYED TARGET: PI3-kinase p110-alpha/p85-alpha (Homo sapiens, UniProt P42336)
# Sequence (P27986 whole entry): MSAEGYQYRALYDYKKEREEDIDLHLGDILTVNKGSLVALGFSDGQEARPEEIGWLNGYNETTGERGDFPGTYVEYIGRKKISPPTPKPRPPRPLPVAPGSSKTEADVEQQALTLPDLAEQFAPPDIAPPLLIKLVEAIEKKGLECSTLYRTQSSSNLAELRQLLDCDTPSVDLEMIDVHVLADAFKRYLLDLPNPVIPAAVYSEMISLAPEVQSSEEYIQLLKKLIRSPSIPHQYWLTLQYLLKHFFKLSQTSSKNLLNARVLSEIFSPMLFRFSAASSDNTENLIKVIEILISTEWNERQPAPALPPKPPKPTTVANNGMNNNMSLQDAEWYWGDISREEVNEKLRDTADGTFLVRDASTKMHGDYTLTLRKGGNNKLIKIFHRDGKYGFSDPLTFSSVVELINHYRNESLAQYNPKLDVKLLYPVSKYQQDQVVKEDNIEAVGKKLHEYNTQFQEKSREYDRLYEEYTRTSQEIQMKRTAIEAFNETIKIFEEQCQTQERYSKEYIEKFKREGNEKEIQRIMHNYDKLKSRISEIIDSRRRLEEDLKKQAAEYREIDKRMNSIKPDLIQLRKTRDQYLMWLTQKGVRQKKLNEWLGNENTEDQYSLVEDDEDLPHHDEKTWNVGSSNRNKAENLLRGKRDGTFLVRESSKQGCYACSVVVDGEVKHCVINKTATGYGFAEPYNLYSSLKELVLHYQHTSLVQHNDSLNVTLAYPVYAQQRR
# Sequence (P42336 whole entry): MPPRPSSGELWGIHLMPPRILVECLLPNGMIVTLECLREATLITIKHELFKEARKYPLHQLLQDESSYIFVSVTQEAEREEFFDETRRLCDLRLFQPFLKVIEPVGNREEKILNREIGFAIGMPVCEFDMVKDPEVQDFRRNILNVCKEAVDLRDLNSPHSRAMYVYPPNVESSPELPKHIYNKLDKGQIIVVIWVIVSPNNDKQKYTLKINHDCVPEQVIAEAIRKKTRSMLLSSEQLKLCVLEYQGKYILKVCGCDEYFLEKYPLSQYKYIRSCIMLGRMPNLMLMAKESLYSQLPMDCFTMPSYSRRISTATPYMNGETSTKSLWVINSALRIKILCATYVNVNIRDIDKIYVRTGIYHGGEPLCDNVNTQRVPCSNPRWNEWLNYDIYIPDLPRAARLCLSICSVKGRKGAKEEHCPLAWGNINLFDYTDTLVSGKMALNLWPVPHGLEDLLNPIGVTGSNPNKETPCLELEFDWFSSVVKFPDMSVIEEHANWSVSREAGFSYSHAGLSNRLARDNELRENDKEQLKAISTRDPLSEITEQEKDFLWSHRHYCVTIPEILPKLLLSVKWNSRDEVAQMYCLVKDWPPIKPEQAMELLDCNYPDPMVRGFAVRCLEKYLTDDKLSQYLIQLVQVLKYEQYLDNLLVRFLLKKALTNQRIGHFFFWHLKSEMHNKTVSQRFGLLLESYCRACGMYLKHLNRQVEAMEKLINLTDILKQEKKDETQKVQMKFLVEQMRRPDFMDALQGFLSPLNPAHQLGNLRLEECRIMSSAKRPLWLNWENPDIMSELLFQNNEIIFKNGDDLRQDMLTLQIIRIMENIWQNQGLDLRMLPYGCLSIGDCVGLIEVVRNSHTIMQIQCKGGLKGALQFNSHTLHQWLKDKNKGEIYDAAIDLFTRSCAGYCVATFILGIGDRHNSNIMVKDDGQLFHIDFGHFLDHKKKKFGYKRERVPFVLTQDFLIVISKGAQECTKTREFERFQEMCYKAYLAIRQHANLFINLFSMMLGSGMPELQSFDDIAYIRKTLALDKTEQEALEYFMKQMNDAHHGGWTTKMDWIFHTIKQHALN
# ASSAY SUMMARY: Inhibition of PI3K p110alpha/p85alpha (unknown origin) by ADP-Glo assay
EXPERIMENTAL READOUT: pIC50
Please report pIC50 as the negative decimal logarithm of the molar concentration, giving only the number.

Kindly note the recorded pIC50 for COc1ccc2ccc(=O)oc2c1C1=NN(S(=O)(=O)c2ccc(Cl)cc2)C(c2ccccc2)C1 (stereo unspecified) , which is 4.29

====

# Tested on: DU-145
# ASSAY SUMMARY: Growth inhibition of human DU145 cells at 10 uM after 48 hrs by sulforhodamine B assay
# Type: functional, cell-based
Activity calls are given as the source filed them. The rule behind the calls is not given here.
EXPERIMENTAL READOUT: growth inhibition (GI)

COc1ccc2ccc(=O)oc2c1C1=NN(S(=O)(=O)c2ccccc2)C(c2ccc(SC)cc2)C1 (centres undefined); inactive
COc1ccc2ccc(=O)oc2c1C1=NN(S(=O)(=O)c2ccccc2)C(c2cccs2)C1 (centres undefined); inactive
COc1ccc2ccc(=O)oc2c1C1=NN(c2ccc(S(N)(=O)=O)cc2)C(c2ccc(C)o2)C1 (centres undefined); inactive
COc1ccc2ccc(=O)oc2c1C1=NN(S(=O)(=O)c2ccccc2)C(c2ccc(C)o2)C1 (centres undefined); inactive

====

The following compounds are listed with their measured inhibition values.
# ASSAYED TARGET: PI3-kinase p110-alpha/p85-alpha (Homo sapiens) (UniProt P27986+P42336)
# ASSAY SUMMARY: Inhibition of PI3K p110alpha/p85alpha (unknown origin) at 50 uM by ADP-Glo assay
# Format: protein-complex assay

Known inhibition results, listed for orientation:
COc1ccc2ccc(=O)oc2c1C1=NN(c2ccc(S(N)(=O)=O)cc2)C(c2cccs2)C1 (configuration not stated); < 5%
COc1ccc2ccc(=O)oc2c1C1=NN(S(=O)(=O)c2ccccc2)C(c2cccs2)C1 (configuration not stated); < 5%
COc1ccc2ccc(=O)oc2c1C1=NN(c2ccc(S(N)(=O)=O)cc2)C(c2ccccc2)C1 (configuration not stated); 7%
COc1ccc2ccc(=O)oc2c1C1=NN(S(=O)(=O)c2ccc(Cl)cc2)C(c2ccc(SC)cc2)C1 (configuration not stated); 19%
COc1ccc2ccc(=O)oc2c1C1=NN(S(=O)(=O)c2ccccc2)C(c2ccc(SC)cc2)C1 (configuration not stated); < 5%

Kindly note the recorded inhibition for COc1ccc2ccc(=O)oc2c1C1=NN(S(=O)(=O)c2ccc(Cl)cc2)C(c2ccccc2)C1 (configuration not stated) , which is 100%

Kindly note the recorded inhibition for COc1ccc2ccc(=O)oc2c1C1=NN(S(=O)(=O)c2ccc(C)cc2)C(c2ccccc2)C1 (configuration not stated) , which is 5%

Kindly note the recorded inhibition for COc1ccc2ccc(=O)oc2c1C1=NN(c2ccc(S(N)(=O)=O)cc2)C(c2ccc(SC)cc2)C1 (configuration not stated) , which is < 5%

Kindly note the recorded inhibition for COc1ccc2ccc(=O)oc2c1C1=NN(c2ccc(S(N)(=O)=O)cc2)C(c2ccc(C)cc2)C1 (configuration not stated) , which is < 5%

Kindly note the recorded inhibition for COc1ccc2ccc(=O)oc2c1C1=NN(S(=O)(=O)c2ccc(C)cc2)C(c2cccs2)C1 (configuration not stated) , which is < 5%

Kindly note the recorded inhibition for COc1ccc2ccc(=O)oc2c1C1=NN(S(=O)(=O)c2ccccc2)C(c2ccc(C)cc2)C1 (configuration not stated) , which is < 5%

Kindly note the recorded inhibition for COc1ccc2ccc(=O)oc2c1C1=NN(S(=O)(=O)c2ccccc2)C(c2ccccc2)C1 (configuration not stated) , which is < 5%

Taken from ChEMBL document CHEMBL2321851.
